molecular target: JARID1B (Homo sapiens); construct: The FLAG tagged full length JARID1B enzyme was expressed in Sf21 insect cells using FLAG-JARID1B baculoviruses; FLAG (N); made in house; host or cells: Sf21 insect cells (baculovirus); assay: FLAG-JARID1B histone demethylase assay with AlphaScreen detection (HTS and dose response); assay type: biochemical; conditions: high-throughput screen, compound 20 μM, standard demethylase conditions (10 μM α-KG, 50 μM Fe (II)); read-out: Inhibitory effect (percent);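 further: FLAG-tagged JARID1B at 4 nM acting on a biotinylated H3K4me3 peptide, demethylation read by AlphaScreen luminescence, with hits checked against bio-H3K4me2 without enzyme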
Sequence (Q9UGL1 whole entry): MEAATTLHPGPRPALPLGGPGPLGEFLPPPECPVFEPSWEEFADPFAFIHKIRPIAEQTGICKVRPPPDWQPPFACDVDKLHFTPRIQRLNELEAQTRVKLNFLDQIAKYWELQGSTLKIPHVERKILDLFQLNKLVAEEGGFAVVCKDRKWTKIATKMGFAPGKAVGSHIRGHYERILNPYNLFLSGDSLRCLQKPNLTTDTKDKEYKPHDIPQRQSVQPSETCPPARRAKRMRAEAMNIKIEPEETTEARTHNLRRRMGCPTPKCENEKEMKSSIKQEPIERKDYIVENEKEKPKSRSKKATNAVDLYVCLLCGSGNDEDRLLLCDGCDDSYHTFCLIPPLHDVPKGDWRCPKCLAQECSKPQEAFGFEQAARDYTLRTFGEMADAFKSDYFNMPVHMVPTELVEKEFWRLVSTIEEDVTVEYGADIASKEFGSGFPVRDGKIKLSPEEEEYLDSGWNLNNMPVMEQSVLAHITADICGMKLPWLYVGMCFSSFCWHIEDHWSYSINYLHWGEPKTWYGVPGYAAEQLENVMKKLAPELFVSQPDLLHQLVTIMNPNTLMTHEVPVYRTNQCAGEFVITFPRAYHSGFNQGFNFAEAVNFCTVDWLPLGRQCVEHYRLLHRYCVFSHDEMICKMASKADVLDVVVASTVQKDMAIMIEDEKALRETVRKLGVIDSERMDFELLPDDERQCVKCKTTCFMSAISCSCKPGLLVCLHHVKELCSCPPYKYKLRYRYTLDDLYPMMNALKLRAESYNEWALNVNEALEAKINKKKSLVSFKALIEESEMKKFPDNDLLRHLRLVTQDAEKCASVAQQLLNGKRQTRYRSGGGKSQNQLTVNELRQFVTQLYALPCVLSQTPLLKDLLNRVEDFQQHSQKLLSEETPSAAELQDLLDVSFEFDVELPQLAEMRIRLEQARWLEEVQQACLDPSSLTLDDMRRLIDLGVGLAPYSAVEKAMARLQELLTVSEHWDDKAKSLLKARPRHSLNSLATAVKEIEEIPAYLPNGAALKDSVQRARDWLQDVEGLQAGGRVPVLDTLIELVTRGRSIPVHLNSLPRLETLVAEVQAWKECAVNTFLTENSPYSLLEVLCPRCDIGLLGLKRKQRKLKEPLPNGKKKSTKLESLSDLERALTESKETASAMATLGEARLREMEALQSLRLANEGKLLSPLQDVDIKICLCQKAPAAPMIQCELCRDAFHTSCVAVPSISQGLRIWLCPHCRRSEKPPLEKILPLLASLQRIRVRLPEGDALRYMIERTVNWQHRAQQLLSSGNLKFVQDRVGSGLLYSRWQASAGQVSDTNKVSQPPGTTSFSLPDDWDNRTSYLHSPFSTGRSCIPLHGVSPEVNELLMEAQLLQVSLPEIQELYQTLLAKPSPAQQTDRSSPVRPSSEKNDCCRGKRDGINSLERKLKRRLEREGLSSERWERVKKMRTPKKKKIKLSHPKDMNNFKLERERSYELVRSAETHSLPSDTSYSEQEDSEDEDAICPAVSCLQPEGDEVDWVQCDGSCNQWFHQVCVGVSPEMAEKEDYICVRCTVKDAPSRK
measuredEndpoint: inhibition at 20 µM
Remember to put the unit after the number in your answer.

Task: Request - read-out inhibition at 20 µM | tested on JARID1B (Homo sapiens) | compound O=c1c2c(-c3ccc(Cl)cc3)csc2nc2n1CCC2
Output: 32.1%

Task: Request - read-out inhibition at 20 µM | tested on JARID1B (Homo sapiens) | compound CCOC(=O)c1ccc(NC(c2cccnc2)c2ccc3cccnc3c2O)cc1 (centres unmarked)
Output: 37.1%

Task: Request - read-out inhibition at 20 µM | tested on JARID1B (Homo sapiens) | compound c1ccc(-c2nn3c(Cn4cnc5ccccc54)nnc3s2)cc1
Output: 40.5%

Task: Request - read-out inhibition at 20 µM | tested on JARID1B (Homo sapiens) | compound CC(=O)Nc1ccccc1NC(=O)c1ccc2c(c1)OCO2
Output: 84.7%

Task: Request - read-out inhibition at 20 µM | tested on JARID1B (Homo sapiens) | compound COc1cc2cc3c4cc(OC)c(OC)cc4cc[n+]3c(C)c2cc1OC.[Cl-] [YU155528, CORALYNE CHLORIDE, reference compound]
Output: 73.2%

Task: Request - read-out inhibition at 20 µM | tested on JARID1B (Homo sapiens) | compound N#CC(=Cc1ccc(-c2ccccc2)o1)C(N)=S
Output: 32.8%

Task: Request - read-out inhibition at 20 µM | tested on JARID1B (Homo sapiens) | compound Cn1c(S)nnc1CSCc1ccc(F)cc1
Output: 31.1%

Task: Request - read-out inhibition at 20 µM | tested on JARID1B (Homo sapiens) | compound O=c1c(O)cc([C@H]2Oc3cc(O)cc(O)c3C[C@H]2O)cc2c([C@H]3Oc4cc(O)cc(O)c4C[C@H]3O)cc(O)c(O)c12 [YU155003, THEAFLAVIN, reference compound]
Output: 60.4%
